Biological target: T1, human CD19 (human, UniProt P15391 20-556)
T1 construct: CD19 as expressed on Raji, NALM-6 and SU-DHL-6 cells; also called CD19 antigen; B-cell surface antigen B4
T1 sequence: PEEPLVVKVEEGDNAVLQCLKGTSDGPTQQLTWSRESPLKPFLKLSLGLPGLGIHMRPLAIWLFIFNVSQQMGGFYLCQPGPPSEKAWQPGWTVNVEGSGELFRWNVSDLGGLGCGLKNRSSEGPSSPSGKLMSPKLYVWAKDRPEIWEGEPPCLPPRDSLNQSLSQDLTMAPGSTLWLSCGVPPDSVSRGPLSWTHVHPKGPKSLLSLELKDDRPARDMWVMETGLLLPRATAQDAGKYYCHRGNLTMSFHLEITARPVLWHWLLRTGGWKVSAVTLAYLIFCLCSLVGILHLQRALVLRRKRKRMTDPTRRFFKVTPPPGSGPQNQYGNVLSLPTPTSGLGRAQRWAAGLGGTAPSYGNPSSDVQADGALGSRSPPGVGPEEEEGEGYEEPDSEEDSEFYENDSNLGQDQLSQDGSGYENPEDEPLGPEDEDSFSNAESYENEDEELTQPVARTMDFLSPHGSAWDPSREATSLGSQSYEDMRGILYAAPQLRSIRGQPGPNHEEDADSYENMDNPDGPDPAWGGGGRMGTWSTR
Experiment: flow cytometry, Raji cells, MPF vs chimeric FMC63
QUANTITY_NAME: relative MPF (% of chimeric FMC63) (%)
Answer with a number only, understood to be in %.

Below are worked cases with known answers.
BINDER: VH16-R94K/VL43-P44V (antibody, human IgG1, V domains shown, Full-length human IgG1/kappa; substitutions in Kabat numbering) VH: QVQLVQSGGGVVQPGRSLRLSCAASGVSLPDYGVSWVRQAPGKGLEWVAVIWGSETTYYNSALKSRFTISRDNSKNTLYLQMNSLRAEDTAVYYCAKHYYYGGSYAMDYWGQGTLVTVSS VL: DIVMTQTPSSLSASVGDRVTITCRASQDISKYLNWYQQKPGKAVKLLIYHTSRLHSGVPSRFSGSGSGTDFTLTISSLQPEDFATYYCQQGNTLPYTFGPGTKVDIKR
relative MPF (% of chimeric FMC63) / %: 52.9
//
BINDER: VH16-Y32F-R94K-Y97F/VL43-V3Q-T7S-N92A (antibody, human IgG1, name in Kabat numbering, V domains shown, substitutions in Kabat numbering) VH: QVQLVQSGGGVVQPGRSLRLSCAASGVSLPDFGVSWVRQAPGKGLEWVAVIWGSETTYYNSALKSRFTISRDNSKNTLYLQMNSLRAEDTAVYYCAKHYFYGGSYAMDYWGQGTLVTVSS VL: DIQMTQSPSSLSASVGDRVTITCRASQDISKYLNWYQQKPGKAPKLLIYHTSRLHSGVPSRFSGSGSGTDFTLTISSLQPEDFATYYCQQGATLPYTFGPGTKVDIKR
relative MPF (% of chimeric FMC63) / %: 16.9

Q: relative MPF (% of chimeric FMC63) for VH16 R94K Y32F VL43 (antibody, human IgG1, name in Kabat numbering, V domains shown, substitutions in Kabat numbering) VH: QVQLVQSGGGVVQPGRSLRLSCAASGVSLPDFGVSWVRQAPGKGLEWVAVIWGSETTYYNSALKSRFTISRDNSKNTLYLQMNSLRAEDTAVYYCAKHYYYGGSYAMDYWGQGTLVTVSS VL: DIVMTQTPSSLSASVGDRVTITCRASQDISKYLNWYQQKPGKAPKLLIYHTSRLHSGVPSRFSGSGSGTDFTLTISSLQPEDFATYYCQQGNTLPYTFGPGTKVDIKR ?
Ans: 62.5

These data points were gathered from patent US20100215651A1.
